I'd be grateful if you could share measured IC50 for these entries.
test system: KARPAS-422; assay: Antiproliferative activity against human KARPAS-422 cells assessed as cell growth inhibition incubated for 72 hrs followed by compound dilution in growth medium and measured after 96 hrs by Alamar blue assay; type: functional, cell-based
Write the quantity with the unit trailing the number.

>>> result("Cc1cc(C)n(C)c(=O)c1CN1CCc2c(Cl)cc(-c3c(C)noc3C)c(Cl)c2C1=O")
"4680 nM"
>>> result("Cc1cc(C)c(CN2CCc3c(Cl)cc(-c4c(C)noc4C)c(Cl)c3C2=O)c(=O)[nH]1")
"122 nM"
>>> result("COc1cc(C)n(C)c(=O)c1CN1CCc2c(Cl)cc(-c3c(C)noc3C)c(Cl)c2C1=O")
"2950 nM"
>>> result("COc1cc(C)[nH]c(=O)c1CN1CCNc2c(Cl)cc(-c3c(C)noc3C)c(Cl)c2C1=O")
"65 nM"

Lab note: each compound below needs its IC50 filled in.
1. CSc1cc(C)n(C)c(=O)c1CN1CCc2c(Cl)cc(-c3c(C)noc3C)c(Cl)c2C1=O
2. CSc1cc(C)n(C)c(=O)c1CN1CCNc2c(Cl)cc(-c3c(C)noc3C)c(Cl)c2C1=O
3. CSc1cc(C)n(C)c(=O)c1CN1CCN(C)c2c(Cl)cc(-c3c(C)noc3C)c(Cl)c2C1=O
4. CSc1cc(C)[nH]c(=O)c1CN1CCN(C)c2c(Cl)cc(-c3c(C)noc3C)c(Cl)c2C1=O
5. COc1cc(C)[nH]c(=O)c1CN1CCN(C)c2c(Cl)cc(-c3c(C)noc3C)c(Cl)c2C1=O

Result:
["632 nM", "1320 nM", "10400 nM", "125 nM", "245 nM"]

----------
target: Histone-lysine N-methyltransferase EZH2 (Homo sapiens, UniProt Q15910); experiment: Inhibition of EZH2 (unknown origin) using 3H-SAM as substrate incubated for 1 hour by filter binding method
Sequence (Q15910 whole entry): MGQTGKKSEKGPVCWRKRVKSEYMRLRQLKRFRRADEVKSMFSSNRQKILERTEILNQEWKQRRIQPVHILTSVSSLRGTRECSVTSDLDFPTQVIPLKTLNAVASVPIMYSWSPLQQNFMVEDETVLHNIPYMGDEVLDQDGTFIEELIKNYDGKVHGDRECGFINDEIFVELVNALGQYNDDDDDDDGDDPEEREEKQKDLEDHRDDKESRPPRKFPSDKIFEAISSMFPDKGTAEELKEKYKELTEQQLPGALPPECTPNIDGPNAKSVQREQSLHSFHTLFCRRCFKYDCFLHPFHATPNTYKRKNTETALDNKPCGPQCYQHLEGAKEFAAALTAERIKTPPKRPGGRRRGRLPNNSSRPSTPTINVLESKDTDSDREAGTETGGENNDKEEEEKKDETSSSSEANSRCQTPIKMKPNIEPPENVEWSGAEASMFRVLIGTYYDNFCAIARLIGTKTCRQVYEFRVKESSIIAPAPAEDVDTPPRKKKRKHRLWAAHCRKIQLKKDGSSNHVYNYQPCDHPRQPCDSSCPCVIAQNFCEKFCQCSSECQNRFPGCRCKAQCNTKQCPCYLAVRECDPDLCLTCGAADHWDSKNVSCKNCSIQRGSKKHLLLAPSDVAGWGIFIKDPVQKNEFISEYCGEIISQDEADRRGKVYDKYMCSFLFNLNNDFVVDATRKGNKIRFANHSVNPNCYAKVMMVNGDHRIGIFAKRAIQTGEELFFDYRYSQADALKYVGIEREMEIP
Entries whose IC50 is below 9 nM take Condition met; entries at or above 9 nM take Condition not met.

Below, 2 compounds whose answers are already recorded.
>>> qualitative_label("COc1cc(C)[nH]c(=O)c1CN1CCN(C)c2c(Cl)cc(C(O)C3CCOCC3)c(Cl)c2C1=O (stereo not given)")
"Condition not met"
>>> qualitative_label("COc1cc(C)[nH]c(=O)c1CN1CCN(C)c2ccc(-c3c(C)noc3C)c(Cl)c2C1=O")
"Condition met"

Problem: # TODO verify IC50 < 9 nM strictly for this compound: COc1cc(C)[nH]c(=O)c1CN1CCNc2c(Cl)cc(-c3c(C)noc3C)c(Cl)c2C1=O
Result: Condition met

Problem: Also need CSc1cc(C)n(C)c(=O)c1CN1CCN(C)c2c(Cl)cc(-c3c(C)noc3C)c(Cl)c2C1=O , thanks.
Result: Condition not met

Problem: Also need COc1cc(C)[nH]c(=O)c1CN1CCN(C)c2c(Cl)cc(-c3ccc(Cl)cc3F)c(Cl)c2C1=O , thanks.
Result: Condition not met

----------
I'd be grateful if you could share measured IC50 for these entries.
target: Histone-lysine N-methyltransferase EZH2 (Homo sapiens); assay: Inhibition of EZH2 in HEK293T cells assessed as H3K27me3 levels incubated for 48 hrs by flow cytometry; type: cell-based
Numbers only, in nM.

For orientation, consider the following solved cases.
>>> recorded_number("COc1cc(C)[nH]c(=O)c1CN1CCN(C)c2c(Cl)cc(-c3c(C)noc3C)c(Cl)c2C1=O")
208
>>> recorded_number("Cc1cc(C)c(CN2CCc3c(Cl)cc(-c4c(C)noc4C)c(Cl)c3C2=O)c(=O)[nH]1")
16

Problem: I would be grateful if you could share the reported IC50 for COc1cc(C)[nH]c(=O)c1CN1CCNc2c(Cl)cc(-c3c(C)noc3C)c(Cl)c2C1=O .
Result: 17
